# Tested on: M14 melanoma
# experimental-protocol: NCI tumour cell line growth inhibition, 48 h
Below, each entry is listed alongside its reported log10(TGI).
Reminder: these figures are log10 of reported TGI, in µM before transformation.

Completed entries (count: 4):
{"smiles-input": "O=C(Nc1cccc2ccccc12)c1cc2ccccc2cc1O", "system": "M14 melanoma", "assay-metric": "log10(TGI)", "reading": 1.31}
{"smiles-input": "COc1ccc(-n2nnnc2C2(Nc3ccccc3)CCN(Cc3ccccc3)CC2)cc1", "system": "M14 melanoma", "assay-metric": "log10(TGI)", "reading": 1.51}
{"smiles-input": "O=C1c2cccnc2-c2nccc3ccnc1c23", "system": "M14 melanoma", "assay-metric": "log10(TGI)", "reading": 0.39}
{"smiles-input": "O=C1/C(=C/c2ccc(O)cc2)CCc2ccccc21", "system": "M14 melanoma", "assay-metric": "log10(TGI)", "reading": 1.56}

Could you now look at the following molecule, please?
Prompt: # get_value(readout='log10(TGI)', item= `CN(CCNC(=O)c1cc(-c2ccccc2)nc2ccccc12)CCNC(=O)c1cc(-c2ccccc2)nc2ccccc12` )
Completion: 0.67

---

# System: T-47D breast
# experimental-protocol: NCI tumour cell line growth inhibition, 48 h
assay-metric: TGI

{"compound": "Cc1ccc(OCCn2cc(Nc3ccccc3)c(=O)[nH]c2=O)cc1", "system": "T-47D breast", "assay-metric": "TGI", "reading": "> 100 µM"}

Prompt: So what's the measured TGI for this one? `O=C1/C(=c2\c3ccccc3n3c(=O)c4ccccc4nc23)Nc2ccccc21`
Completion: > 100 µM

Prompt: Recorded TGI of `N=c1c2c(=O)n3c(nc2nc2sc4ccc(Cl)cc4n12)-c1ccccc1Sc1ccccc1-3` , please.
Completion: 7.23 µM

Prompt: Give its TGI value. Item: `O=C(CN/C=C\C(=O)c1cc(Cl)ccc1Cl)c1ccccc1`
Completion: > 100 µM

Prompt: TGI for `N=C(N)c1ccc(-c2ccc(-c3cc(Cl)cc(Cl)c3)s2)nc1` ?
Completion: 4.99 µM

Prompt: Which TGI is listed for `COc1ccc(-n2nnnc2C2(Nc3ccccc3)CCN(Cc3ccccc3)CC2)cc1` ?
Completion: 45.2 µM

---

Listed here are compounds together with their documented TGI.
# Test system: PC-3 prostate
# experimental-protocol: NCI tumour cell line growth inhibition, 48 h

Solved cases below.
{"compound": "O=C(O)c1cn(C2CC2)c2cc(N3CCN(C(=O)Nc4nc(-c5ccc(Cl)cc5)cs4)CC3)c(F)cc2c1=O", "TGI": "> 100 µM"}
{"compound": "C/C(=C\\c1ccc2c(c1)OCO2)[N+](=O)[O-]", "TGI": "5.9 µM"}
{"compound": "Cc1cc(NC(=O)C(=O)Cc2nc3ccccc3s2)ccc1Cl", "TGI": "> 100 µM"}
{"compound": "O=C(Nc1ccc(F)cc1)c1cc2ccc(O)cc2oc1=Nc1cccc(F)c1", "TGI": "> 100 µM"}
{"compound": "O=C(NC1CCN(Cc2ccccc2)CC1)c1ccccc1I", "TGI": "98.8 µM"}

Prompt: Give the reported TGI for `COc1ccc2nc(-c3ccc(O)cc3)cn2c1` (system: PC-3 prostate).
Completion: > 100 µM

Prompt: Form field - read-out: TGI; system: PC-3 prostate; submitted item: `O=C(/C=C/c1ccc2c(c1)OCO2)c1ccccc(=O)c1O`
Completion: > 100 µM

Prompt: Identify the measured TGI of `COc1cccc(-c2cc(NCc3ccc4c(c3)OCO4)nc(N)n2)c1` for PC-3 prostate.
Completion: 48.3 µM

Prompt: Notebook entry, PC-3 prostate assay: TGI of COc1ccc(/C=C2\CCCC3=C2N=C2SC=NN2C3c2ccc(OC)c(OC)c2)cc1OC (stereo unspecified) = ?
Completion: > 100 µM

Prompt: Form: Entry = `Cc1ccc2nc(Cl)c(/C=N/N3C(=O)/C(=C/Cc4ccco4)N=C3c3ccccc3)cc2c1` | System = PC-3 prostate | TGI = ____
Completion: > 100 µM

Prompt: Recall the recorded TGI for `COc1ccc(OC)c(/C=C/c2cnnc3ccccc23)c1` with PC-3 prostate and state it.
Completion: > 10 µM
